meta.source: the kinase profiling compilation of Christmann-Franck et al. (2016)

Measured residual activity, listed per entry for reference.
- ASSAYED TARGET: UniProt Q15759
- Sequence (Q15759 whole entry, looked up): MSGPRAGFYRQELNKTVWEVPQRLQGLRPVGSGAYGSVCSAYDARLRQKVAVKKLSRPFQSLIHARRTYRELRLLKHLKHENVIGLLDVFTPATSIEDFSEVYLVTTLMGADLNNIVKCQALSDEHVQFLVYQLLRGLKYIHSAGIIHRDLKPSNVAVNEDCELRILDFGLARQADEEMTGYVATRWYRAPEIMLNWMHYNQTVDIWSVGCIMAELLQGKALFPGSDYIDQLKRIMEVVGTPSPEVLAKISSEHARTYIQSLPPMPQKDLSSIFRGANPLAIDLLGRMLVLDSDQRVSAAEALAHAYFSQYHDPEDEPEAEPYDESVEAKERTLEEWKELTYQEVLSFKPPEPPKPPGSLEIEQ
- ASSAY METHOD TEXT: radiometric filter-binding kinase assay
- CONDITION CONTEXT: compound 1.0 µM; ATP 20 µM
# output: bare number, implied unit %

COc1ccc2c(c1)=NC1=C(C)NCCC=21 :: 92
CC[C@@H](CO)Nc1nc(NCc2ccccc2)c2ncn(C(C)C)c2n1 :: 94
O=S(=O)(NCCNC/C=C/c1ccc(Br)cc1)c1cccc2cnccc12 :: 91
O=C1c2ccccc2-c2n[nH]c3cccc1c23 :: 106
CO[C@H]1CC2CC[C@@H](C)[C@@](O)(O2)C(=O)C(=O)N2CCCC[C@H]2C(=O)OC([C@H](C)C[C@@H]2CC[C@@H](O)[C@H](OC)C2)CC(=O)[C@H](C)/C=C(\C)[C@@H](O)[C@@H](OC)C(=O)[C@H](C)C[C@H](C)/C=C/C=C/C=C/1C (stereo partly specified) :: 84

Please find the next molecule below.
State the recorded residual activity for this entry: COC[C@H]1OC(=O)c2coc3c2[C@@]1(C)C1=C(C3=O)[C@@H]2CCC(=O)[C@@]2(C)C[C@H]1OC(C)=O
97
